I'd appreciate it if you could supply EC50 values for the items below.
# assayed target: Rev-Erb alpha (Homo sapiens)
# Sequence (P20393 284-614 limits assumed): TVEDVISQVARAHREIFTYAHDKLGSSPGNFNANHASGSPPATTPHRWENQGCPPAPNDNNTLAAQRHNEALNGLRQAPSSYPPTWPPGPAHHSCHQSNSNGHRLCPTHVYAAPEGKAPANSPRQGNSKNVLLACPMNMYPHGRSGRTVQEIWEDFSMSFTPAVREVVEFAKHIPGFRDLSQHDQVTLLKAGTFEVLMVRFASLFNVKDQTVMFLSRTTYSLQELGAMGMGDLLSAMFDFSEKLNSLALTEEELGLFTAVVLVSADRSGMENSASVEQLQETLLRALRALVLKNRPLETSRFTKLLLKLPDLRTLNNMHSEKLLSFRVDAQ
# experimental details: M2H (mammalian two-hybrid) cellular activation assay of Rev-Erb alpha
# Format: cell-based
# experimental parameters: M2H assay, HEK293 cells, Gal4-Rev-Erb alpha / VP16-NCoR, luciferase reporter

Worked examples, 3 compounds total:
compound="COc1cccc(-c2cccc(Oc3ccc4nnc(Cl)n4n3)c2)c1 [Cpd.3-14]" experimental_result="1000 to 6000 nM"
compound="Cc1cc2nnc(Cl)n2nc1Oc1cc(C(F)(F)F)ccc1-c1cncnc1 [Cpd.5-29]" experimental_result="1000 to 6000 nM"
compound="Nc1ccc(Oc2ccc3nnc(Cl)n3n2)c(-c2ccccc2)c1 [Cpd.4-36]" experimental_result="1000 to 6000 nM"

Would you mind listing EC50 for each of the following compounds?
1. CC(C)C(=O)Nc1ccc(Oc2ccc3nnc(Cl)n3n2)c(-c2ccccc2)c1 [Cpd.4-192]
2. CCCN(CCC)c1ccc(Oc2ccc3nnc(Cl)n3n2)c(-c2ccccc2)c1 [Cpd.4-53]
3. CCc1ncncc1-c1ccc(C(F)(F)F)cc1Oc1cc(C)c2nnc(Cl)n2n1 [Cpd.5-53]
4. FC(F)(F)c1cccc(-c2ccccc2Oc2ccc3nnc(Cl)n3n2)c1 [Cpd.4-28]
5. Clc1nnc2ccc(Oc3ccccc3-c3ccccc3)nn12 [Cpd.4-1]
6. Oc1cccc(-c2ccccc2Oc2ccc3nnc(Cl)n3n2)c1 [Cpd.4-21]

1: 1000 to 6000 nM; 2: 100 to 1000 nM; 3: 1000 to 6000 nM; 4: 100 to 1000 nM; 5: < 100 nM; 6: 100 to 1000 nM

State the recorded EC50 for every item in the following list.
1. Fc1ccc(Oc2ccc3nnc(Cl)n3n2)c(-c2cccnc2)c1 [Cpd.4-107]
2. Fc1ccc2c(Oc3cc(C(F)(F)F)ccc3-c3ccccc3)nn3c(Cl)nnc3c2c1 [Cpd.5-2]

["> 6000 nM", "100 to 1000 nM"]

---

Task for the reader: assign each of the following molecules its reported EC50.
# assayed target: Rev-Erb alpha (Homo sapiens)
# experimental details: M2H (mammalian two-hybrid) cellular activation assay of Rev-Erb alpha
# Assay type: cell-based
# experimental parameters: M2H assay, HEK293 cells, Gal4-Rev-Erb alpha / VP16-NCoR, luciferase reporter

Some solved entries appear below for comparison.
molecule="Fc1ncccc1-c1ccc(C(F)(F)F)cc1Oc1ccc2nnc(Cl)n2n1 [Cpd.4-78]" assayed_target="Rev-Erb alpha (Homo sapiens)" readout_kind=EC50 experimental_result="0.1 to 1 µM"
molecule="CNc1ccc(Oc2ccc3nnc(Cl)n3n2)c(-c2ccccc2)c1 [Cpd.4-47]" assayed_target="Rev-Erb alpha (Homo sapiens)" readout_kind=EC50 experimental_result="< 0.1 µM"
molecule="COc1ccc(-c2cccc(C(F)(F)F)c2)c(Oc2ccc3nnc(Cl)n3n2)c1 [Cpd.4-113]" assayed_target="Rev-Erb alpha (Homo sapiens)" readout_kind=EC50 experimental_result="0.1 to 1 µM"

# per-item lookup of EC50; items listed below
1. CC(C)(C)OC(=O)NCc1ccc(-c2ccccc2)c(Oc2ccc3nnc(Cl)n3n2)c1 [Cpd.4-186]
2. CN(C)Cc1ccc(-c2ccccc2)c(Oc2ccc3nnc(Cl)n3n2)c1 [Cpd.4-41]
3. CCC(=O)Nc1ccc(Oc2ccc3nnc(Cl)n3n2)c(-c2ccccc2)c1 [Cpd.4-191]
4. Cc1cc2nnc(Cl)n2nc1Oc1cc(C(F)(F)F)ccc1-c1cncnc1C [Cpd.5-47]
5. FC(F)(F)c1ccc(-c2ccccc2)c(Oc2ccc3nnc(Cl)n3n2)c1 [Cpd.4-33]
6. Cc1ccc(-c2ccccc2Oc2ccc3nnc(Cl)n3n2)cc1 [Cpd.4-23]
7. OCc1ccc(-c2ccccc2)c(Oc2ccc3nnc(Cl)n3n2)c1 [Cpd.4-155]
8. COc1cccc(-c2cc(F)c(F)cc2Oc2ccc3nnc(Cl)n3n2)c1 [Cpd.4-152]

1 to 6 µM
1 to 6 µM
1 to 6 µM
1 to 6 µM
< 0.1 µM
0.1 to 1 µM
1 to 6 µM
1 to 6 µM

Lab note: each molecule below needs its EC50 filled in.
1. FC(F)(F)c1ccc(-c2nccs2)c(Oc2ccc3nnc(Cl)n3n2)c1 [Cpd.4-105]
2. Fc1cccc(-c2ccccc2Oc2ccc3nnc(Cl)n3n2)c1 [Cpd.4-3]
3. FC(F)(F)c1ccc(-c2cscn2)c(Oc2ccc3nnc(Cl)n3n2)c1 [Cpd.4-106]

1: 1 to 6 µM; 2: 0.1 to 1 µM; 3: 1 to 6 µM

---

Assignment: determine reported pEC50 for the given compounds.
# assayed target: UniProt P20393
# experimental details: M2H (mammalian two-hybrid) cellular activation assay of Rev-Erb alpha
# Assay type: cell-based
# experimental parameters: M2H assay, HEK293 cells, Gal4-Rev-Erb alpha / VP16-NCoR, luciferase reporter
pEC50: −log10 of the molar value.

entry_smiles=Fc1ccc(-c2cc(F)ccc2Oc2ccc3nnc(Cl)n3n2)c(F)c1 readout_kind=pEC50 experimental_result="6.00 to 7.00"
entry_smiles=N#Cc1ccc(Oc2ccc3nnc(Cl)n3n2)c(-c2ccccc2)c1 readout_kind=pEC50 experimental_result="5.22 to 6.00"
entry_smiles=COc1ncc(-c2cc(Cl)ccc2Oc2nn3c(Cl)nnc3c3ccccc23)cn1 readout_kind=pEC50 experimental_result="6.00 to 7.00"
entry_smiles=FC(F)(F)c1ccc(-c2cccnc2)c(Oc2ccc3nnc(Cl)n3n2)c1 readout_kind=pEC50 experimental_result="6.00 to 7.00"
entry_smiles=Cc1cccc(-c2cc(F)ccc2Oc2ccc3nnc(Cl)n3n2)c1 readout_kind=pEC50 experimental_result="6.00 to 7.00"

For each of the compounds below, note its pEC50.
1. Cc1nc(-c2ccc(Oc3ccc4nnc(Cl)n4n3)c(-c3ccccc3)c2)no1
2. Clc1ccccc1-c1cccc(Oc2ccc3nnc(Cl)n3n2)c1
3. CC(C)c1cc2nnc(Cl)n2nc1Oc1cc(C(F)(F)F)ccc1-c1ccccc1
4. Clc1ccccc1-c1ccccc1Oc1ccc2nnc(Cl)n2n1
5. CCNc1ccc(Oc2ccc3nnc(Cl)n3n2)c(-c2ccccc2)c1
6. CCc1cc(Oc2cc(C(F)(F)F)ccc2-c2ccccc2)nn2c(Cl)nnc12
7. CCN(CC)Cc1ccc(Oc2ccc3nnc(Cl)n3n2)c(-c2ccccc2)c1

["6.00 to 7.00", "5.22 to 6.00", "6.00 to 7.00", "> 7.00", "6.00 to 7.00", "6.00 to 7.00", "< 5.22"]
